Test system: Phakopsora pachyrhizi (F129L)
TEST_DETAILS: Protective control of soybean rust on soybeans (PHAKPA P2)
Format: in vivo
RUN_PARAMETERS: protective P2, 16 ppm, soybean rust F129L
Items are presented alongside their recorded % PHAKPA (F129L) Disease level P2 at 16 ppm.
Write the value in % as a bare number.

Guide cases for % PHAKPA (F129L) Disease level P2 at 16 ppm, answers given:
Exercise: Query % PHAKPA (F129L) Disease level P2 at 16 ppm on Phakopsora pachyrhizi (F129L) for CNC(=O)/C(=N/OC)c1cccc(C)c1CO/N=C(\C)c1cc(C)ccc1C [compound 278]
Solution: 60

Exercise: Then what about the molecule CO/N=C(/C(=O)OC)c1cccc(C)c1CO/N=C(\C)c1cccc(-c2cc(C)on2)c1 [compound 43] ?
Solution: 100

Exercise: Same again, this time with CNC(=O)/C(=N/OC)c1cccc(C)c1CO/N=C(\C)c1cc(-c2ccccc2)cc(C(F)(F)F)c1 [compound 149]
Solution: 45

Exercise: Could you do the same for CO/N=C(/C(=O)OC)c1cccc(C)c1CO/N=C(\C)c1ccc(F)c(F)c1OC(F)(F)F [compound 447] , please?
Solution: 0

Exercise: Likewise for CO/N=C(/C(=O)OC)c1cccc(C)c1CO/N=C(\C)c1ccc(OC(F)(F)F)cc1C [compound 259] ?
Solution: 17

Continuing:
Exercise: I'm curious: which % PHAKPA (F129L) Disease level P2 at 16 ppm was measured for C#Cc1ccc(/C(C)=N/OCc2c(C)cccc2/C(=N\OC)C(=O)NC)cc1 [compound 196] tested on Phakopsora pachyrhizi (F129L)?
Solution: 0

Exercise: How about this molecule: CNC(=O)/C(=N/OC)c1cccc(C)c1CO/N=C(\CC1CC1)c1cccc(C(F)(F)F)c1 [compound 234]
Solution: 18

Exercise: Consider next the molecule C#Cc1cc(F)c(F)c(/C(C)=N/OCc2c(C)cccc2/C(=N\OC)C(=O)NC)c1 [compound 243] in the same way.
Solution: 0

###

Test system: Leptosphaeria nodorum
TEST_DETAILS: Micro titer plate test against Leptosphaeria nodorum causing wheat leaf spots (LEPTNO)
Assay type: cell-based
RUN_PARAMETERS: Parastagonospora nodorum, 168 h; 0.063 ppm; read-out: Fungal growth (%) LEPTNO
MEASUREMENT_KIND: activity at 0.063 ppm (%)
Please respond with the number in % and leave the unit unwritten.

Solved entries (count: 5):
Exercise: State its activity at 0.063 ppm on Leptosphaeria nodorum: CO/N=C(/C(=O)OC)c1cccc(C)c1CO/N=C(\SC)c1cccc(C)c1 [drawing 953]
Solution: 85

Exercise: Query CNC(=O)/C(=N/OC)c1cccc(C)c1CO/N=C(\SC)c1cccc(C(F)(F)F)c1 [drawing 944] next
Solution: 93

Exercise: Subsequent entry: CO/N=C(/C(=O)OC)c1cccc(C)c1CO/N=C(\C)c1cccc(Cl)c1
Solution: 55

Exercise: Check CO/N=C(/C(=O)OC)c1cccc(C)c1CO/N=C(\OC)c1cccc(C)c1 [drawing 954] too.
Solution: 65

Exercise: Also CO/N=C(/C(=O)OC)c1cccc(C)c1CO/N=C(\OC)c1cccc(C(F)(F)F)c1 [drawing 942] ?
Solution: 100

Next:
Exercise: Lab note: need activity at 0.063 ppm for CNC(=O)/C(=N/OC)c1cccc(C)c1CO/N=C(\OC)c1cccc(C(F)(F)F)c1 [drawing 946] on Leptosphaeria nodorum, anyone have it?
Solution: 95

Exercise: Field entry: CO/N=C(/C(=O)OC)c1cccc(C)c1CO/N=C(\C)c1cccc(C)c1
Solution: 39

Exercise: Cool, now CO/N=C(/C(=O)OC)c1cccc(C)c1CO/N=C(\C)c1cccc(OC(F)(F)F)c1 [drawing 940]
Solution: 79

###

Reported values of % PHAKPA (F129L) Disease level P2 at 16 ppm for individual entries
Tested on: Phakopsora pachyrhizi (F129L)
TEST_DETAILS: Protective control of soybean rust on soybeans (PHAKPA P2)
Format: in vivo
RUN_PARAMETERS: protective P2, 16 ppm, soybean rust F129L
The reply should be a number in %, with the unit left off.

Below, each entry is followed by its recorded % PHAKPA (F129L) Disease level P2 at 16 ppm result.
Exercise: Could you tell me which % PHAKPA (F129L) Disease level P2 at 16 ppm is on file for CO/N=C(/C(=O)OC)c1cccc(C)c1CO/N=C(\C)c1cc(Cl)cc(Cl)c1 ?
Solution: 3

Exercise: What about CNC(=O)/C(=N/OC)c1cccc(C(F)F)c1CO/N=C(\C)c1cccc(C(F)(F)F)c1 ?
Solution: 1

Exercise: Would you kindly repeat that for CNC(=O)/C(=N/OC)c1cccc(C)c1CO/N=C(\C)c1cc(C(F)(F)F)ccc1Cl ?
Solution: 0

Exercise: Query C=C(C)c1cccc(/C(=N\OC)C(=O)NC)c1CO/N=C(\C)c1ccccc1 next
Solution: 8

Exercise: Now this one: CNC(=O)/C(=N/OC)c1cccc(C)c1CO/N=C(\C)c1c(F)cccc1F
Solution: 0

---
Exercise: Using the record for CNC(=O)/C(=N/OC)c1cccc(C)c1CO/N=C(\C)c1c(F)cccc1Cl , report its % PHAKPA (F129L) Disease level P2 at 16 ppm.
Solution: 44

Exercise: Entry to check: CNC(=O)/C(=N/OC)c1cccc(C)c1CO/N=C(\C)c1ccc(C)cc1C(F)(F)F
Solution: 3

Exercise: Further, for CO/N=C(/C(=O)OC)c1cccc(C)c1CO/N=C(\C)c1c(F)cc(F)cc1F ?
Solution: 0

###

Test system: Phakopsora pachyrhizi (F129L)
TEST_DETAILS: Protective control of soybean rust on soybeans (PHAKPA P2)
Format: in vivo
RUN_PARAMETERS: protective P2, 16 ppm, soybean rust F129L
Class True: % PHAKPA (F129L) Disease level P2 at 16 ppm at least 5%. Class False: % PHAKPA (F129L) Disease level P2 at 16 ppm below 5%.

# count of solved cases: 6
Exercise: Does CNC(=O)/C(=N/OC)c1cccc(C)c1CO/N=C(\C)c1cccc(C(F)(F)F)c1F have a reported % PHAKPA (F129L) Disease level P2 at 16 ppm of at least 5%?
Solution: False

Exercise: # repeat for CO/N=C(/C(=O)OC)c1cccc(C)c1CO/N=C(\C)c1cccc(Cl)c1
Solution: False

Exercise: Request: CNC(=O)/C(=N/OC)c1cccc(C)c1CO/N=C(\C)c1ccc(-c2ccccc2)cc1C(F)(F)F
Solution: True

Exercise: Now the compound CNC(=O)/C(=N/OC)c1cccc(C)c1CO/N=C(\C)c1ccc(Oc2ccc(Cl)cc2)cc1C(F)(F)F
Solution: True

Exercise: Entry CO/N=C(/C(=O)OC)c1cccc(C)c1CO/N=C(\C)c1ccc(C(F)(F)F)cc1 please
Solution: False

Exercise: // repeat for C=Cc1cccc(/C(=N\OC)C(=O)OC)c1CO/N=C(\C)c1cccc(C(F)(F)F)c1 and report
Solution: False

Now for another entry.
Exercise: Please tell me: is the compound CO/N=C(/C(=O)OC)c1cccc(C)c1CO/N=C(/c1ccc(F)cc1)C(F)F at or over 5% in terms of % PHAKPA (F129L) Disease level P2 at 16 ppm?
Solution: True

###

Test system: Phakopsora pachyrhizi (F129L)
TEST_DETAILS: Protective control of soybean rust on soybeans (PHAKPA P6)
Type: in vivo
RUN_PARAMETERS: protective P6, 4 ppm, soybean rust F129L
Please use y for % PHAKPA (F129L) Disease level P6 at 4 ppm under 60% and n for everything else, ties included.

Solved cases (2 shown):
Exercise: Hi there! Is % PHAKPA (F129L) Disease level P6 at 4 ppm for CO/N=C(/C(=O)OC)c1cccc(C)c1CO/N=C(\C)c1ccccc1F below 60%, do you know?
Solution: n

Exercise: Continue with CNC(=O)/C(=N/OC)c1cccc(C)c1CO/N=C(\C)c1ccc(F)c(C(F)(F)F)c1
Solution: y

Further cases:
Exercise: A record lists C#Cc1cccc(/C(C)=N/OCc2c(C)cccc2/C(=N\OC)C(=O)NC)c1 . Is its % PHAKPA (F129L) Disease level P6 at 4 ppm below 60%?
Solution: y

Exercise: Another: CNC(=O)/C(=N/OC)c1cccc(C)c1CO/N=C(\C)c1cccc(C)c1
Solution: y

Exercise: What do you get for CNC(=O)/C(=N/OC)c1cccc(C)c1CO/N=C(\C)c1cc(C)cc(C)c1 ?
Solution: n

Exercise: Please answer likewise for CO/N=C(/C(=O)OC)c1cccc(C)c1CO/N=C(\C)c1cccc(F)c1C(F)(F)F
Solution: n

Exercise: And for CO/C=C(/C(=O)OC)c1cccc(C)c1CO/N=C(\C)c1ccccc1CC(F)(F)F ?
Solution: y

###

Tested on: Leptosphaeria nodorum
TEST_DETAILS: Micro titer plate test against Leptosphaeria nodorum causing wheat leaf spots (LEPTNO)
Assay type: cell-based
RUN_PARAMETERS: Parastagonospora nodorum, 168 h; 0.063 ppm; read-out: Fungal growth (%) LEPTNO
MEASUREMENT_KIND: activity at 0.063 ppm (%)
Enter your answer as a number in %; do not include the unit.

Exercise: Entry under review: CO/N=C(/C(=O)OC)c1cccc(C)c1CO/N=C(/c1cccc(C)c1)C1CC1 [drawing 955] . Reported activity at 0.063 ppm?
Solution: 100

Exercise: Same question, CNC(=O)/C(=N/OC)c1cccc(C)c1CO/N=C(\C)c1cccc(C(F)(F)F)c1 [Ex. 8] this time
Solution: 70

Exercise: Please do the same for CO/N=C(/C(=O)OC)c1cccc(C)c1CO/N=C(\SC)c1cccc(Cl)c1 [drawing 963] as well.
Solution: 88

The record that follows has no activity at 0.063 ppm shown yet.
Exercise: Entry CO/N=C(/C(=O)OC)c1cccc(C)c1CO/N=C(\C)c1cccc(C(F)(F)F)c1 [Ex. 9] : reported activity at 0.063 ppm = ?
Solution: 67
